Values were extracted from patent EP2818471A1.

# System: beta-TC6 cells
# experiment.description: Insulin HTRF assay, relative activity Ar normalized to sunitinib
# Format: cell-based
# measurement.parameters: Mus musculus, normalized to positive control sunitinib (5 µM = 100%), Table 10
# Protocol: For further screening of compounds derived from compounds described above for their ability to regulate insulin release an insulin HTRF® (Homogeneous Time-Resolved Fluorescence; Cisbio International, France) was used. This assay is based on two antibodies against insulin binding to different epitopes of insulin. […] The HTRF assay is carried out using Greiner 384-well 784075 assay plates. […] Finally HTRF is measured on ViewLux ultra high throughput microplate imager (PerkinElmer). […]
property: Emax

Sample records with Emax:
compound: CCOc1cccc(-c2cn3c(-c4ccc(CCC(=O)O)cc4)cnc3cn2)c1
assay.target: beta-TC6 cells
value.observed: ≥ 100%

compound: O=C(NC1CC1)c1ccc(-c2cnc3cccnn23)cc1
assay.target: beta-TC6 cells
value.observed: 10 to 20%

compound: Fc1ccc(-c2ccc3ncc(-c4cccs4)n3n2)cc1Cl
assay.target: beta-TC6 cells
value.observed: 20 to 50%

compound: O=C(Nc1cnc2cnc(-c3cnn(Cc4ccccc4)c3)cn12)C1CCC1
assay.target: beta-TC6 cells
value.observed: 20 to 50%

compound: COc1ccc(-c2ccc3nnc(-c4ccccc4C)n3c2)cc1OC
assay.target: beta-TC6 cells
value.observed: 50 to 100%

Entry COc1cccc(C#Cc2ccc3nnc(-c4cccc(OC(F)(F)F)c4)n3c2)c1 ; Emax = 20 to 50%

# Emax (compound: O=C(Cc1ccsc1)Nc1cnc2cnc(-c3ccccc3F)cn12 ) is 10 to 20%
